# System: U2OS
# ASSAY PROTOCOL: Incucyte cell viability with U2OS; further: unitless GR value; below 1 slowed growth and below 0 cell loss
# Assay type: toxicity, cell-based
# CONDITION LABEL: human, 0 h, 10 µM, compound concentration 10 uM, replicate number 2
METRIC: Growth Rate

>>> number("O=C(Nc1cc(-c2cn[nH]c2)ccc1N1CCOCC1)c1ccc(-c2ccc3ncccc3c2)o1")
-0.65
>>> number("NC(=O)c1ccc(-c2nc(-c3ccc4c(c3)OCO4)c(-c3ccccn3)[nH]2)cc1.O")
-0.09
>>> number("CC1CCN(C(=O)[C@H](CCn2cccc2C#N)NS(=O)(=O)c2cccc3[nH]ccc23)CC1")
0.6
>>> number("N#Cc1ccnc(Nc2cc(C3CCN(C4COC4)CC3)cc(N3CCC(F)(F)C3)n2)c1")
-1
>>> number("O=C(Nc1ccccc1C(=O)O)c1cc(S(=O)(=O)c2ccccc2)ccc1Cl")
0.97
>>> number("CC1(C)Oc2ncnc(N)c2N=C1c1ccc([C@H]2CC[C@H](CC(=O)O)CC2)cc1")
-0.4
>>> number("O=C(Nc1cc(C(F)(F)F)cc(C(F)(F)F)c1)c1cc(Cl)ccc1O [IMD-0354]")
-1
>>> number("CC(C)c1ccc(/C=N/NC(=O)c2ccc(O)cc2)cc1")
-0.95
>>> number("CC1(C)Cc2nc(C3CCCC3)c([C@@H](F)c3ccc(C(F)(F)F)cc3)c(C3CCCCC3)c2[C@@H](O)C1")
0.96
>>> number("COc1cc(CN(CCN)C(=O)N[C@@H](C)c2ccccc2)ccc1OCc1ccccc1.Cl")
-0.26
>>> number("C[C@@H]1CC[C@@]2(OC1)O[C@H]1[C@@H](O)[C@H]3[C@@H]4CC[C@H]5C[C@@H](O[C@@H]6O[C@H](CO)[C@H](O[C@@H]7O[C@H](CO)C(O)[C@H](O[C@@H]8OC[C@@H](O)[C@H](O)[C@H]8O)[C@H]7O[C@@H]7O[C@H](CO)[C@H](O)[C@H](O[C@@H]8O[C@H](CO)[C@@H](O)[C@H](O)[C@H]8O)[C@H]7O)[C@H](O)[C@H]6O)[C@H](O)C[C@]5(C)[C@H]4CC[C@]3(C)[C@H]1[C@@H]2C (stereo not given in full) [DIGITONIN]")
0.74
>>> number("COc1ccc(NC(=O)[C@@H]2C[C@H](C)CC[C@H]2C(C)C)cc1 [ACOLTREMON]")
-0.89
>>> number("CN(C)C(=O)c1cc2cnc(Nc3ccc(N4CCN(CCCCNC(=O)COc5cccc6c5C(=O)N(C5CCC(=O)NC5=O)C6=O)CC4)cn3)nc2n1C1CCCC1 (stereo not given)")
0.74
>>> number("FC(F)(F)c1ccccc1-c1cc(C(F)(F)F)c2[nH]c(C3=NOC4(CCCCC4)C3)nc2c1")
-0.12
>>> number("Clc1cccc(-n2nnnc2NCc2ccccc2Oc2ccccn2)c1Cl")
0.95

---

Below, each of the compounds is paired with its reported Growth Rate value.
# Tested on: HEK-293T
# ASSAY PROTOCOL: Incucyte cell viability with HEK293T; further: unitless GR value; below 1 slowed growth and below 0 cell loss
# Assay type: toxicity, cell-based
# CONDITION LABEL: human, 12 h, 10 µM, compound concentration 10 uM, replicate number 2
METRIC: Growth Rate

>>> number("CCCNc1ccc2ncc(-c3ccncc3)n2n1")
-0.13
>>> number("CCN1CCN(Cc2ccc(Nc3ncc(F)c(-c4cc(F)c5nc(C)n(C(C)C)c5c4)n3)nc2)CC1 [ABEMACICLIB]")
0.37
>>> number("Cc1nccn1CC1CCc2c(c3ccccc3n2C)C1=O.Cl (configuration not stated)")
0.75
>>> number("O=c1cc(-c2cc(F)c(Cl)nc2Cl)[nH]c2c(-c3ccccc3)c(C(F)(F)F)nn12")
0.74
>>> number("COc1ccc2nc3ccc(OC)cc3c(SCCCN)c2c1.Cl")
0.76
>>> number("Cn1nc(-c2ccc(C(N)=O)cc2)c2ccccc2c1=O")
0.4
>>> number("CC[C@H](Nc1ncnc2[nH]cnc12)c1nc2cccc(F)c2c(=O)n1-c1ccccc1 [IDELALISIB]")
0.12
>>> number("Cc1cc(-c2nc(-c3ccc(OC(F)(F)F)cc3)no2)nn1Cc1ccnc(N2CCN(C3CC3)CC2)c1")
0.08
>>> number("Cc1cc([N+](=O)[O-])c(NS(=O)(=O)c2cccc(C(=O)O)c2)cc1-c1cccnc1 [ALOFANIB]")
0.68
>>> number("C[C@@H](C(N)=O)[C@H](N)c1nc2cc(C(C)(C)C)ccc2[nH]1 [PF-06305591]")
0.9
>>> number("NC(=O)c1cc(-c2ccnc(NC3CCCCC3)c2)nc(N2CCNCC2)c1")
0.31
>>> number("CO[C@H]1C[C@@H]2CC[C@@H](C)[C@@](O)(O2)C(=O)C(=O)N2CCCC[C@H]2C(=O)O[C@H]([C@H](C)C[C@@H]2CC[C@@H](O)[C@H](OC)C2)CC(=O)[C@H](C)/C=C(\\C)[C@@H](O)[C@@H](OC)C(=O)[C@H](C)C[C@H](C)/C=C/C=C/C=C/1C [SIROLIMUS]")
0.13
>>> number("COc1cc(N2CCN(C)CC2)ccc1Nc1ncc2c(n1)N(C)c1ccccc1C(=O)N2CC(F)(F)F")
0.22
>>> number("CC(=O)Nc1cccc(-n2c(=O)n(C3CC3)c(=O)c3c(Nc4ccc(I)cc4F)n(C)c(=O)c(C)c32)c1 [TRAMETINIB]")
0.78
>>> number("C[C@H](CCC(=O)O)[C@H]1CC[C@H]2[C@@H]3CC[C@@H]4C[C@H](O)CC[C@]4(C)[C@H]3CC[C@]12C [LITHOCHOLIC ACID]")
0.67
>>> number("N=C(N)NCCC[C@@H](NC(=O)C(c1ccccc1)c1ccccc1)C(=O)NCc1ccc(CNC(N)=O)cc1.O=C(O)C(F)(F)F")
0.76
>>> number("O=S(=O)(Nc1ccc(C(O)(C(F)(F)F)C(F)(F)F)cc1)c1cccs1")
0.89

---

# Tested on: U2OS
# ASSAY PROTOCOL: Incucyte cell viability with U2OS; further: unitless GR value; below 1 slowed growth and below 0 cell loss
# Type: toxicity, cell-based
# CONDITION LABEL: human, 0 h, 10 µM, compound concentration 10 uM, replicate number 2
Friendly reminder: Growth Rate below 0.6 is Criterion met, at or above is Criterion not met.

>>> class_assignment("O=C(NCc1ccc(F)cc1)C1CCN(S(=O)(=O)c2cc(Cl)cc(Cl)c2)CC1")
"Criterion not met"
>>> class_assignment("CCN(C)C(=O)c1ccc2c(c1)NC(=O)/C2=C(\\NC1CCN(C)CC1)c1ccccc1")
"Criterion met"
>>> class_assignment("CN1CC(=O)N(C)c2cnc(Nc3ccc(NC(=O)Nc4cccc(C(=O)O)c4)cc3)nc21")
"Criterion met"
>>> class_assignment("C[C@H](CCC(=O)[O-])[C@H]1CC[C@H]2[C@@H]3[C@@H](O)C[C@@H]4C[C@H](O)CC[C@]4(C)[C@H]3CC[C@]12C.[Na+]")
"Criterion not met"
>>> class_assignment("COc1c(NC(=O)c2cc3cccc(Oc4ccnc(C(=O)N5CCN(C)CC5)c4)c3n2C)cc(C(C)(C)C)cc1NS(C)(=O)=O")
"Criterion met"
>>> class_assignment("CC(N)C1CCC(C(=O)Nc2ccncc2)CC1 (stereo not drawn)")
"Criterion met"
>>> class_assignment("Cn1nccc1Nc1nccc(-c2cc3c(s2)C(C)(C)N(CCN2CCOCC2)C3=O)n1")
"Criterion met"

---

Entries and their measured Growth Rate follow.
# Tested on: U2OS
# ASSAY PROTOCOL: Incucyte cell viability with U2OS; further: unitless GR value; below 1 slowed growth and below 0 cell loss
# Type: toxicity, cell-based
# CONDITION LABEL: human, 24 h, 10 µM, compound concentration 10 uM, replicate number 1
METRIC: Growth Rate

>>> number("CC(C)CC(=O)Nc1cncc(-c2ccc3[nH]nc(-c4nc5c(-c6cccc(F)c6)cncc5[nH]4)c3c2)c1 [LORECIVIVINT]")
-0.44
>>> number("Cc1cc(Cn2c(N3CC4(CNC4)C3)nc3c(N4CCN(C)CC4)cc(Cl)cc32)cc(C)c1F")
-0.79
>>> number("C[C@@H](Oc1cc(-n2cnc3ccc(OC4CCN(C)CC4)cc32)sc1C(N)=O)c1ccccc1Cl [GSK-579289A]")
0.93
>>> number("COc1nc2ccc([C@@](O)(c3ccccc3)C3CCN(C(C)=O)CC3)cc2c(Cl)c1Cc1ccc(-n2cccn2)cc1 [JNJ-54119936]")
0.94
>>> number("CN(C1CCc2c(c3ccccc3n2CC(=O)O)C1)S(=O)(=O)c1ccc(F)cc1 (stereo unspecified)")
0.87
>>> number("Cn1c(SCc2ccc(C(C)(C)C)cc2)nc(N)cc1=O")
0.78
>>> number("Cc1cc(C(C#N)c2ccc(Cl)cc2)c(Cl)cc1NC(=O)c1cc(I)cc(I)c1O (stereo unspecified) [CLOSANTEL]")
0.98
>>> number("CCc1ccc(-c2ncn(CC3(F)CCN(C)CC3)c2-c2ccnc3[nH]ccc23)nc1")
0.87
>>> number("CC(C=CC1=C(C)CCCC1(C)C)=CC=CC(C)=CC(=O)O")
0.87
>>> number("CCN(CC)CCO[C@H]1CC[C@@]2(C)C(=CC[C@@H]3[C@@H]2CC[C@]2(C)C(=O)CC[C@@H]32)C1.Cl")
0.91
>>> number("CC[C@@H](Nc1c(C#N)c(-c2ccc(-c3cccc(C)c3F)cc2)nc2cnccc12)C(=O)O [BAY-091]")
0.81
>>> number("CCC(C(=O)Nc1ccc(-c2cc3ccccc3s2)c(C(N)=O)c1)c1nccs1 (stereo unspecified)")
0.72
>>> number("CC(C)(C)OC(=O)CN1C(=O)c2c(OCC(=O)O)cccc2Oc2ccc(C(F)(F)F)cc21")
0.89
>>> number("Cc1nnc2n1-c1sc(CCC(=O)N3CCOCC3)cc1C(c1ccccc1Cl)=NC2 [APAFANT]")
0.88
>>> number("CNc1nc(-c2ccc3c(N)n[nH]c3c2)cc(N2C[C@@H](C(=O)NC3CCCCC3)CC[C@H]2C)n1")
0.51
>>> number("COc1ccccc1[C@@H]1CNCCC12CCN(C(=O)[C@](OC)(c1ccccc1)C(F)(F)F)CC2")
0.53
>>> number("CCN1CCN(Cc2ccc(C(=O)Nc3ccc(C)c(Oc4ccc5c(c4)CC(=O)N5)c3)cc2C(F)(F)F)CC1.Cl.Cl")
0.51
>>> number("O=C1Nc2nc(-c3c(O)cccc3OCC3CC3)cc([C@@H]3CCCNC3)c2CO1")
0.83
>>> number("CC(Oc1cc(-c2cnn(C3CCNCC3)c2)cnc1N)c1c(Cl)ccc(F)c1Cl (stereo unspecified)")
0.39
>>> number("COCc1nc2cnc3cc(-c4c(C)noc4C)c(OC[C@H]4CCNC4)cc3c2n1[C@H](C)c1ccccc1 [GSK778]")
1
>>> number("COc1cccc(CNc2ccc(S(=O)(=O)Nc3nc4ccccc4s3)cc2)c1O [VLX-1005]")
0.99
>>> number("CC(C)(C)NC(=O)c1cncn1C1CCN(c2ccc(-c3nnc(C(F)(F)F)o3)cn2)CC1")
0.32
>>> number("COc1cc(Nc2ccc([N+](=O)[O-])cc2C(=O)O)cc2ccccc12")
0.98
>>> number("O=C1CSC(=O)N1C(CCc1ccncc1)COc1ccc(-c2cccc([N+](=O)[O-])c2)cc1 (stereo unspecified)")
0.89
>>> number("Cn1cc(-n2cnc3c(NCc4nc5cc(Cl)c(Cl)cc5[nH]4)nc(N4CCOCC4)nc32)cn1")
-0.09
>>> number("C#Cc1cnc2[nH]cc(-c3cccc4c3CCN4C(=O)[C@@H]3CCCN3C#N)c2c1")
-0.58
>>> number("c1ccc2c(-c3coc4cc(-c5ccc(N6CCNCC6)cc5)cnc34)ccnc2c1")
-0.05
>>> number("C[C@@H]1C[C@H](N)C[C@H](c2ccncc2NC(=O)c2ccc(F)c(-c3c(F)cccc3F)n2)C1 [LGH-447]")
0.98
>>> number("Cc1cc(Cn2c(N3CC4(CNC4)C3)nc3cc(Cl)cc(N4CCN(C)CC4)c32)cc(C)c1F")
0.83
>>> number("COc1cc(N2CCC(N3CCN(C)CC3)CC2)ccc1Nc1ncc(Cl)c(Nc2ccccc2S(=O)(=O)C(C)C)n1 [TAE-684]")
-0.15
>>> number("O=C1NCCSc2c1sc1ccc(O)cc21")
0.37
>>> number("CC(C)(O)CNC(=O)N1C(=O)N(c2cccc(C(F)(F)F)c2)C2=C(C(=O)CC2)[C@@H]1c1ccc(C#N)cc1")
0.76
>>> number("Cc1nnc2n1-c1sc3c(c1C(c1ccccc1Cl)=NC2)C[C@H](C(=O)N1CCOCC1)C3")
0.94
>>> number("CNc1nc(NCc2ncccn2)c2c(-c3ccc4ncccc4c3)c[nH]c2n1")
0.94
>>> number("CCCN1C(=O)c2ccc(Cl)cc2Nc2ncccc21")
0.98
>>> number("CO[C@H](C)CN1CC[C@@]2(C)c3ccc(O)cc3C[C@@H]1C2(C)C.Cl")
0.87
